This collection of values is drawn from patent US11433053B2.

pIC50: −log10 of the molar value.
This section lists pIC50 readings for human LSD1 (Homo sapiens (Human), UniProt O60341).
endpoint name: pIC50

compound: N#Cc1cccc(-c2nc(C3(CN[C@H]4CC4c4ccccc4)CCC3)no2)c1 (some centres unmarked)
test target: human LSD1 (Homo sapiens (Human), UniProt O60341)
endpoint name: pIC50
recorded result: ≥ 7.30
//
compound: O=C(N1CCC(c2nc(C3(CN[C@H]4CC4c4ccccc4)CC3)no2)CC1)C(F)(F)F (some centres unmarked)
test target: human LSD1 (Homo sapiens (Human), UniProt O60341)
endpoint name: pIC50
recorded result: ≥ 7.30
//
compound: Clc1ccc(C2(CN[C@H]3CC3c3ccccc3)CCC2)cc1 (some centres unmarked)
test target: human LSD1 (Homo sapiens (Human), UniProt O60341)
endpoint name: pIC50
recorded result: ≥ 7.30
//
compound: CN(C)[C@H]1CC[C@@H](c2nc(C3(CN[C@@H]4C[C@H]4c4ccccc4)CC3)no2)CC1
test target: human LSD1 (Homo sapiens (Human), UniProt O60341)
endpoint name: pIC50
recorded result: ≥ 7.30
//
compound: CCn1ncnc1CNCC1(CN[C@H]2C[C@@H]2c2ccccc2)CC1
test target: human LSD1 (Homo sapiens (Human), UniProt O60341)
endpoint name: pIC50
recorded result: 6.30 to 7.00
//
compound: c1ccc(C2C[C@@H]2NCC2(c3noc(-c4cccnc4)n3)CCC2)cc1 (some centres unmarked)
test target: human LSD1 (Homo sapiens (Human), UniProt O60341)
endpoint name: pIC50
recorded result: ≥ 7.30
//
compound: CC(C)[C@H](N)c1nc(C2(CN[C@@H]3C[C@H]3c3ccccc3)CC2)no1
test target: human LSD1 (Homo sapiens (Human), UniProt O60341)
endpoint name: pIC50
recorded result: 6.30 to 7.00
//
compound: c1ccc([C@H]2C[C@@H]2NCC2(c3noc(-c4cncnc4)n3)CCC2)cc1
test target: human LSD1 (Homo sapiens (Human), UniProt O60341)
endpoint name: pIC50
recorded result: 7.00 to 7.30
//
compound: Clc1ccc(-c2nc(C3(CN[C@H]4CC4c4ccccc4)CC3)no2)cc1 (some centres unmarked)
test target: human LSD1 (Homo sapiens (Human), UniProt O60341)
endpoint name: pIC50
recorded result: ≥ 7.30
//
compound: FC1(F)Oc2ccc(-c3nc(C4(CN[C@H]5CC5c5ccccc5)CCC4)no3)cc2O1 (some centres unmarked)
test target: human LSD1 (Homo sapiens (Human), UniProt O60341)
endpoint name: pIC50
recorded result: ≥ 7.30
//
compound: N[C@H]1CC[C@@H](c2nc(C3(CN[C@@H]4C[C@H]4c4ccccc4)CC3)no2)CC1
test target: human LSD1 (Homo sapiens (Human), UniProt O60341)
endpoint name: pIC50
recorded result: ≥ 7.30
//
compound: O=C(O)c1cccc(-c2nc(C3(CN[C@H]4CC4c4ccccc4)CCC3)no2)c1 (some centres unmarked)
test target: human LSD1 (Homo sapiens (Human), UniProt O60341)
endpoint name: pIC50
recorded result: 6.30 to 7.00
//
compound: FC(F)(F)c1ccc(-c2nc(C3(CN[C@H]4CC4c4ccccc4)CCC3)no2)cc1 (some centres unmarked)
test target: human LSD1 (Homo sapiens (Human), UniProt O60341)
endpoint name: pIC50
recorded result: ≥ 7.30
//
compound: O=C(O)c1ccc(N2CCC(c3nc(C4(CN[C@H]5CC5c5ccccc5)CC4)no3)CC2)cn1 (some centres unmarked)
test target: human LSD1 (Homo sapiens (Human), UniProt O60341)
endpoint name: pIC50
recorded result: ≥ 7.30
//
compound: COc1ccccc1-c1nc(C2(CN[C@H]3CC3c3ccccc3)CCC2)no1 (some centres unmarked)
test target: human LSD1 (Homo sapiens (Human), UniProt O60341)
endpoint name: pIC50
recorded result: ≥ 7.30
//
compound: c1ccc([C@H]2C[C@@H]2NCC2(c3nc4ccccc4o3)CC2)cc1
test target: human LSD1 (Homo sapiens (Human), UniProt O60341)
endpoint name: pIC50
recorded result: 7.00 to 7.30
//
compound: N#Cc1ccccc1-c1nc(C2(CN[C@H]3CC3c3ccccc3)CCC2)no1 (some centres unmarked)
test target: human LSD1 (Homo sapiens (Human), UniProt O60341)
endpoint name: pIC50
recorded result: ≥ 7.30
